Target: glucocorticoid receptor (Homo sapiens, UniProt P04150)
Construct: a partially purified full length glucocorticoid receptor
Sequence (P04150 whole entry, species assumed): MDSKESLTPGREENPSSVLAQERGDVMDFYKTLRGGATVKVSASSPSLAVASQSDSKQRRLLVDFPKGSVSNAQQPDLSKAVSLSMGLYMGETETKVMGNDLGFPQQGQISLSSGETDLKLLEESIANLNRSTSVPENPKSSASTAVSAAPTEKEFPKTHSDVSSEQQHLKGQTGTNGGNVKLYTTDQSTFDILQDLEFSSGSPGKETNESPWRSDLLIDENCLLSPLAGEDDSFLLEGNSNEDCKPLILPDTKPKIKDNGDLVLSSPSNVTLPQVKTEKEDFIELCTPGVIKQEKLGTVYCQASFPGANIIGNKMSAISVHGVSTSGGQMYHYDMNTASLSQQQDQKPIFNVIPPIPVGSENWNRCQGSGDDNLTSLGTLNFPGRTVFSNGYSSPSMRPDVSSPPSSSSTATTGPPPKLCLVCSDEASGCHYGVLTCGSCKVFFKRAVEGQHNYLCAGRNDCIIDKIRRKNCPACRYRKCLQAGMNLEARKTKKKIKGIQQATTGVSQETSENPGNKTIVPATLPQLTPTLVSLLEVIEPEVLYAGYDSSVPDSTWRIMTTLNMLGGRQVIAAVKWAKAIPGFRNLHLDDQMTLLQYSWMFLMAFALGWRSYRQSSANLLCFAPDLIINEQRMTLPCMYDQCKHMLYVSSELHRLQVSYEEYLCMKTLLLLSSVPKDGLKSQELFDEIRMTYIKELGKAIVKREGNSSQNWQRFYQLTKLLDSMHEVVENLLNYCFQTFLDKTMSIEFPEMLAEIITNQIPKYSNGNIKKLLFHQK
Experiment: Glucocorticoid Receptor Binding Assay (fluorescence polarisation, displacement of Alexa 555 labelled dexamethasone derivative)
Conditions: at least once in this assay; read-out: glucocorticoid binding pIC50 (converted)
Consider the following compounds and their measured IC50 readings.

- COMPOUND: "CCN(CC(O)(CNC(=O)c1cnn(-c2ccc(F)cc2)c1N)C(F)(F)F)C(=O)c1ccc(F)c(F)c1 (racemic) [Example 21 (racemic)]"
  IC50: "< 1000 nM"
- COMPOUND: "CN(CC(O)(CNC(=O)c1cnn(-c2ccc(F)cc2)c1N)C(F)(F)F)C(=O)c1ccccc1 (racemic) [Example 25 (racemic)]"
  IC50: "< 1000 nM"
- COMPOUND: "CCN(CC(O)(CNC(=O)c1cnn(-c2ccc(F)cc2)c1N)C(F)(F)F)C(=O)c1ccccc1OC(F)F (racemic) [Example 12 (racemic)]"
  IC50: "< 1000 nM"
- COMPOUND: "CCN(CC(O)(CNC(=O)c1cnn(-c2ccc(F)cc2)c1N)C(F)(F)F)C(=O)c1ccccc1F (single isomer, unassigned) [Example 4 Enantiomer 2]"
  IC50: "< 1000 nM"
- COMPOUND: "CCN(CC(O)(CNC(=O)c1cnn(-c2cc(F)cc(F)c2)c1N)C(F)(F)F)C(=O)c1ccccc1 (racemic) [Example 33 (racemic)]"
  IC50: "< 1000 nM"
- COMPOUND: "CN(CC(O)(CNC(=O)c1cnn(-c2ccc(F)cc2)c1N)C(F)(F)F)C(=O)c1ccccc1F (racemic) [Example 6 (racemic)]"
  IC50: "< 1000 nM"
- COMPOUND: "CCN(CC(O)(CNC(=O)c1cnn(-c2ccc(F)cc2)c1N)C(F)(F)F)C(=O)c1ccc(F)cc1Cl (racemic) [Example 23 (racemic)]"
  IC50: "< 1000 nM"
- COMPOUND: "CCN(CC(O)(CNC(=O)c1cnn(-c2ccccc2)c1N)C(F)(F)F)C(=O)c1ccccc1F (single isomer, unassigned) [Example 45 Enantiomer 1]"
  IC50: "< 1000 nM"
- COMPOUND: "CCN(CC(O)(CNC(=O)c1cnn(-c2ccc(Cl)cc2)c1N)C(F)(F)F)C(=O)c1ccccc1 (racemic) [Example 32 (racemic)]"
  IC50: "< 1000 nM"
- COMPOUND: "CCN(CC(O)(CNC(=O)c1cnn(-c2ccc(F)c(F)c2)c1N)C(F)(F)F)C(=O)c1ccccc1 (racemic) [Example 24 (racemic)]"
  IC50: "< 1000 nM"
- COMPOUND: "CCN(CC(O)(CNC(=O)c1cnn(-c2ccc(F)cc2)c1N)C(F)(F)F)C(=O)c1ccccc1F (racemic) [Example 4 (racemic)]"
  IC50: "< 1000 nM"
- COMPOUND: "CN(CC(O)(CNC(=O)c1cnn(-c2ccc(F)cc2)c1N)C(F)(F)F)C(=O)c1cccc(C(F)(F)F)c1 (racemic) [Example 26 (racemic)]"
  IC50: "< 1000 nM"
- COMPOUND: "CCN(CC(O)(CNC(=O)c1cnn(-c2ccccc2)c1N)C(F)(F)F)C(=O)c1ccccc1 (racemic) [Example 43 (racemic)]"
  IC50: "< 1000 nM"
- COMPOUND: "CN(CC(O)(CNC(=O)c1cnn(-c2ccc(F)cc2)c1N)C(F)(F)F)C(=O)c1ccccc1Cl (racemic) [Example 7 (racemic)]"
  IC50: "< 1000 nM"
- COMPOUND: "CCN(CC(O)(CNC(=O)c1cnn(-c2ccccc2)c1N)C(F)(F)F)C(=O)c1ccccc1F (racemic) [Example 45 (racemic)]"
  IC50: "< 1000 nM"
- COMPOUND: "CCN(CC(O)(CNC(=O)c1cnn(-c2ccc(F)cc2)c1N)C(F)(F)F)C(=O)c1cccc(C(C)=O)c1 (racemic) [Example 22 (racemic)]"
  IC50: "< 1000 nM"
- COMPOUND: "Nc1c(C(=O)NCC(O)(CN(CCF)C(=O)c2ccccc2F)C(F)(F)F)cnn1-c1ccc(F)cc1 (racemic) [Example 2 (racemic)]"
  IC50: "< 1000 nM"
- COMPOUND: "CCN(CC(O)(CNC(=O)c1cnn(-c2ccc(F)cc2)c1N)C(F)(F)F)C(=O)c1cccc(F)c1F (single isomer, unassigned) [Example 5 Enantiomer 1]"
  IC50: "< 1000 nM"
- COMPOUND: "Nc1c(C(=O)NCC(O)(CN(CCF)C(=O)c2ccccc2)C(F)(F)F)cnn1-c1ccc(F)cc1 (single isomer, unassigned) [Example 1 Enantiomer 1]"
  IC50: "< 1000 nM"
- COMPOUND: "CCN(CC(O)(CNC(=O)c1cnn(-c2ccccc2)c1N)C(F)(F)F)C(=O)c1ccccc1Cl (racemic) [Example 46 (racemic)]"
  IC50: "< 1000 nM"
- COMPOUND: "CCN(CC(O)(CNC(=O)c1cnn(-c2ccc(F)cc2)c1N)C(F)(F)F)C(=O)c1cccc(Cl)c1 (racemic) [Example 17 (racemic)]"
  IC50: "< 1000 nM"
- COMPOUND: "CCN(CC(O)(CNC(=O)c1cnn(-c2ccc(F)cc2)c1N)C(F)(F)F)C(=O)c1ccccc1 (single isomer, unassigned) [Example 14 Enantiomer 1]"
  IC50: "< 1000 nM"
- COMPOUND: "Nc1c(C(=O)NCC(O)(CN(CCF)C(=O)c2ccccc2F)C(F)(F)F)cnn1-c1ccc(F)cc1 (single isomer, unassigned) [Example 2 Enantiomer 1]"
  IC50: "< 1000 nM"
- COMPOUND: "CN(CC(O)(CNC(=O)c1cnn(-c2ccc(F)cc2)c1N)C(F)(F)F)C(=O)c1ccccc1Cl (single isomer, unassigned) [Example 7 Enantiomer 1]"
  IC50: "< 1000 nM"
